# Tested on: WEE1 (Homo sapiens, UniProt P30291+Q96SW2)
# Construct: C-terminal ePL-tagged (DiscoverX, Fremont, CA) full-length WEE1 expression construct; expressed in transfected cells; host or cells: LentiX-HEK293T (Invitrogen), lentivirally transduced; the cells also over-express GSPT1-GN
# Sequence (P30291 whole entry): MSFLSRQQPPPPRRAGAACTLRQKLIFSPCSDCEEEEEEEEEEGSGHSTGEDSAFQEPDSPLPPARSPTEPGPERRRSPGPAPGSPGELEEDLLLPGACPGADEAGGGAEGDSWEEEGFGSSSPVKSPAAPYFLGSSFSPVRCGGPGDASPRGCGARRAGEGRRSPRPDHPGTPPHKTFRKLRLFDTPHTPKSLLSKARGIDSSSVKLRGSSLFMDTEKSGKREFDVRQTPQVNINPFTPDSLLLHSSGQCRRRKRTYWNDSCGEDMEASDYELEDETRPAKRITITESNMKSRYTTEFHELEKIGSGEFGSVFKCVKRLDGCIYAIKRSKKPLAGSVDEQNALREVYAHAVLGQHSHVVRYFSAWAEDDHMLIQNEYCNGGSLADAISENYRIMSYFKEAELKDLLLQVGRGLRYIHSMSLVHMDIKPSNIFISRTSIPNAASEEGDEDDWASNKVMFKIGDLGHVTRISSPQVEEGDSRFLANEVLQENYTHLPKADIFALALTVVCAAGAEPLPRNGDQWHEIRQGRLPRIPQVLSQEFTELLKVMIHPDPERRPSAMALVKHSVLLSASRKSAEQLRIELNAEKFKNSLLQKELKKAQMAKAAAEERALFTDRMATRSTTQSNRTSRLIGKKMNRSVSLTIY
# Sequence (Q96SW2 whole entry): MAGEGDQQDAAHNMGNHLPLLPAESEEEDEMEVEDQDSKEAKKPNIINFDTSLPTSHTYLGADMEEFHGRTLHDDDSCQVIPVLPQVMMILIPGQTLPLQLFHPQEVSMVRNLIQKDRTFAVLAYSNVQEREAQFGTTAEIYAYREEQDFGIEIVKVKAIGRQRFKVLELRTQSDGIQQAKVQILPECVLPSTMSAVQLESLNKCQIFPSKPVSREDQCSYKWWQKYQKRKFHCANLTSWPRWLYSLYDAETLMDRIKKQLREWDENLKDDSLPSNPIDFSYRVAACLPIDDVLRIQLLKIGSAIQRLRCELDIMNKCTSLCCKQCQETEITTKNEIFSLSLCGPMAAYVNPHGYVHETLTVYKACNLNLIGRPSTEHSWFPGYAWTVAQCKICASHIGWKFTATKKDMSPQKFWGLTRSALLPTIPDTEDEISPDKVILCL
# Sequence (Q16531 whole entry partner): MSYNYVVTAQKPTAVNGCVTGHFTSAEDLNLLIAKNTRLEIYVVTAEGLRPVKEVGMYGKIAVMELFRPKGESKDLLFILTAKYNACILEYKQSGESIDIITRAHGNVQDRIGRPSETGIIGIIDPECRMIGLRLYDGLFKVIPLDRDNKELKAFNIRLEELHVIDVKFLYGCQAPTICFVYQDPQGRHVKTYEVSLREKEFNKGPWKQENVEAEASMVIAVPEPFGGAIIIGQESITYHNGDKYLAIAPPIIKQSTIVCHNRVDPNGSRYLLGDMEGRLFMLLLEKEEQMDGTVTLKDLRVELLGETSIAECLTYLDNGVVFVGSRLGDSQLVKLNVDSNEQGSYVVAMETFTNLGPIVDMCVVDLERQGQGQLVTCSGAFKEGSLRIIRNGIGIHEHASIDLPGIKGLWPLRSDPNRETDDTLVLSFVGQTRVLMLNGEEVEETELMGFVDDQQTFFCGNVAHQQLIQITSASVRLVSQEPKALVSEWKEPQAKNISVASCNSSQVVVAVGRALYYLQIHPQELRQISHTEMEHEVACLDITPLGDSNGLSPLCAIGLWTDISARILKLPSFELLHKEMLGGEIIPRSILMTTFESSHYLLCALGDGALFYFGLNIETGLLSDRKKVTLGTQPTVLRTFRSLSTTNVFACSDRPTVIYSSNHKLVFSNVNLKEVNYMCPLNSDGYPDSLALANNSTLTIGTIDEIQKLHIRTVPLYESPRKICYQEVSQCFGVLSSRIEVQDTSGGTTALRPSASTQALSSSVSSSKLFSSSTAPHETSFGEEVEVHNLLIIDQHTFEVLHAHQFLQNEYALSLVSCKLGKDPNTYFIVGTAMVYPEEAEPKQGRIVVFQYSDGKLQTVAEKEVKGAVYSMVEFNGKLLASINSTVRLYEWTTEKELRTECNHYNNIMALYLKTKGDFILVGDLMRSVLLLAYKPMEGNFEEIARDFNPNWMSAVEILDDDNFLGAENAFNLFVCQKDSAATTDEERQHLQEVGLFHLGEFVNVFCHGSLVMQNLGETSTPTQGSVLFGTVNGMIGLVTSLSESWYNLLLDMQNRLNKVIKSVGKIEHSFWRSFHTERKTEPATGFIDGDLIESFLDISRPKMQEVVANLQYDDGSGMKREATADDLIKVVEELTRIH
# Protocol notes: WEE1-ePL degradation assay (293T-LentiX, InCELL Hunter luminescence, 4 hr)
# Format: cell-based
# Assay setup: lower limit of fit, % of DMSO control signal remaining; 4 hr
Reported endpoint: 293T-LentiX WEE1-ePL Degradation 4 hr YMin (%)

Recorded results for 5 compounds are shown here.
{"Compound": "CN1CC2(CC(c3ccc4cc(CN5CC[C@H](Oc6ccc7c(c6)CN([C@H]6CCC(=O)NC6=O)C7=O)C5)ccc4n3)CO2)C1 (single isomer, unassigned) [Example 2]", "Tested on": "WEE1 (Homo sapiens, UniProt P30291+Q96SW2)", "Recorded result": 33.4}
{"Compound": "O=C1CC[C@H](N2Cc3cc(O[C@H]4CN(Cc5cc(F)c6nc(C7CCOCC7)ccc6c5)C[C@@H]4c4ccccc4)ccc3C2=O)C(=O)N1 (relative stereo)", "Tested on": "WEE1 (Homo sapiens, UniProt P30291+Q96SW2)", "Recorded result": 22.4}
{"Compound": "O=C1CCC(N2C(=O)c3ccc(O[C@H]4CCN(Cc5cc(F)c6nc(C7CCOCC7)ccc6c5)C4)cc3C2=O)C(=O)N1 (single isomer, unassigned) [Example 11]", "Tested on": "WEE1 (Homo sapiens, UniProt P30291+Q96SW2)", "Recorded result": 30.4}
{"Compound": "COC[C@@H]1CN(Cc2ccc3ncc(N4CCOCC4)cc3c2F)C[C@H]1Oc1ccc2c(c1)CN([C@H]1CCC(=O)NC1=O)C2=O", "Tested on": "WEE1 (Homo sapiens, UniProt P30291+Q96SW2)", "Recorded result": 20.1}
{"Compound": "COC[C@@H]1CN(Cc2ccc3ncc(N4CCOCC4)cc3c2)C[C@H]1Oc1ccc2c(c1)CN([C@H]1CCC(=O)NC1=O)C2=O", "Tested on": "WEE1 (Homo sapiens, UniProt P30291+Q96SW2)", "Recorded result": 26.4}

(P) COC[C@@H]1CN(Cc2cc(F)c3nc(N4CCN(C5COC5)CC4)ncc3c2)C[C@H]1Oc1ccc2c(c1)CN([C@H]1CCC(=O)NC1=O)C2=O
(Q) COC[C@@H]1CN(Cc2ccc3cc(N4CCOCC4)cnc3c2)C[C@H]1Oc1ccc2c(c1)CN([C@H]1CCC(=O)NC1=O)C2=O
// compare: P vs Q , metric 293T-LentiX WEE1-ePL Degradation 4 hr YMin (%), want the smaller Give the label of your selection.
P
(P: 26.5%, Q: 43.7%)
